Data provenance: the supplement of paper PMC6555819

PBM binding z-score: recorded values
System: PPARg DBDmut:RXRa IVT, anti-PPARg (DBD mutation: PPARg1 K132A/R137A, NR concentration 270 nM, RXRa partner concentration 90 nM)
Assay: PBM binding z-score (relative to random genomic background probes); higher = stronger binding; sequences stand for … in GC…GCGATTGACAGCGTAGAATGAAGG
The answer should be written as a number, with no unit following it.

- CAAACTAGTTCAAAGGTCAAAGTCGAGCCAACCA: 1.03
- TGTCAAAGTTCAAAGGTAACGTACGTATCCACAC: 2.01
- CATACAGGGTCAGCTAGGCCCGAGTAGGGACGGC: 0.221

Report PBM binding z-score, nothing else, for this sequence: CGTCCAAGGTCAAAGGTGAGTGAAGAGATGACGG
0.48

Report PBM binding z-score, nothing else, for this sequence: TCTTGTAGATCAACAGCAGGTTAAGAAAGATCGA
-0.0164
